test.target: T1, human ACTH 1-39 (human)
T1 peptide: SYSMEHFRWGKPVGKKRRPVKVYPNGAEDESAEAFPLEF
experiment: cell-based or functional assay
endpoint.name: MC1R IC50 (nM)
I only need the number, in nM, no unit after it.

Ab2 (antibody, human IgG1, kappa, N297A, V domains shown, rabbit/human chimeric antibody, made in HEK-293) VH: QSVEESGGRLVTPGTPLTLTCTVSGFSLSKYDMIWVRQAPGKGLESIGIIYDDGDTYYASWAKGRFTISQTSTTVDLKIISPTTEDTATYFCVKGVSNIWGQGTLVTVSS VL: DVVMTQTPASVEAAVGGTVTIKCQASQSISNYLAWYQQKTGQPPKLLIYSASTLASGVPSRFKGSGSGTEFTLTISDLECADAATYYCQSYEGSSSSSYGVGFGGGTEVVVKR ... 3.62
Ab12 (antibody, human IgG1, kappa, N297A, V domains shown, rabbit/human chimeric antibody, made in HEK-293) VH: QSVEESGGRLVTPGTPLTLTCTVSGSSLSDYDMIWVRQAPGKGLESIGIIYDDGDTYYATWAKGRFTISKTSTTVDLRIISPTTEDTATYFCVKGVSNMWGPGTLVTVSS VL: DVVMTQTPSSVSAAVGGTVTIKCQASQSIGSSLAWYQQKPGQRPKLLIYAASTLASGVPSRFKGSGSGTEFTLTISDLECADAATYYCQSYDGSSSSSYGVGFGGGTEVVVKR ... 1.66
Ab5 (antibody, human IgG1, kappa, N297A, V domains shown, rabbit/human chimeric antibody, made in HEK-293) VH: QSVEESGGRLVTPGTPLTLTCTVSGFSLSSYAMSWVRQAPGEGLEWIGIISDSGSTYYASWAKGRFTISKTSTTVDLKITSPTTEDTATYFCAREPEYGYDDYGDWVSDLWGQGTLVTVSS VL: DIVMTQTPASVSEPVGGTVTIKCQASQSISSYLSWYQQKPGQPPKLLIYRASTLASGVPSRFKGSGSGTQFTLTISDLECADAATYYCQSYYYSSSITYRNAFGGGTEVVVKR ... 1.96
Ab3 (antibody, human IgG1, kappa, N297A, V domains shown, rabbit/human chimeric antibody, made in HEK-293) VH: QSLEESGGRLVTPGTPLTLTCTVSGSSLSNFDMIWVRQAPGKGLESIGIIYDFGSTYYASWAKGRFTISRTSSTTVDLKIISPTIEDTATYFCVKGVSNIWGQGTLVTVSS VL: DVVMTQTPASVEAAVGGTVTIKCQASEDISSNLAWYQQKLGQPPKLLIYSASTLASGVPSRFKGSGSGTEFTLAISDLECADAATYYCQSYDGSSSSSYGIGFGGGTEVVVKR ... 4.12

// next entry
Query :: Given the entry Ab11 (antibody, human IgG1, kappa, N297A, V domains shown, rabbit/human chimeric antibody, made in HEK-293) VH: QSLEESGGRLVTPGTSLTLTCTASGFSLSAYDILWVRQAPGKGLESIGMMYDDGDTYYATWAKGRFIISRTSTTMDLKIISPTTEDTATYFCVKGVSNIWGQGTLVTVSS VL: DIVMTQIPASVEAAVGGTVTIKCQASQSIDSSLAWYQQKPGQPPKLLIYSASTLASGVPSRFKGSGSGTEFTLTIGDLECADAATYYCQSYDGSSSSYYGIGFGGGTEVVVKR , report its measured MC1R IC50.
Result :: 1.49
